- Tested on: Kornkäfer (sitophilus granarius L)
- test.details: whole plant or invertebrate
- Format: in vivo
- reported.conditions: sitophilus granarius, in vivo, 3 h
measure.name: Wirksamkeit in % Substanz +Ripcord

CCCCOCCOCCN1CCOCC1 = 93,2%

In: Entry under review: CCCCOC(CN1CCOCC1)OCCCC . Reported Wirksamkeit in % Substanz +Ripcord?
Out: 100%

In: Can you check CCCCOCCOCCN1CCCC1 next?
Out: 78,0%

In: Can you check CCCCOCCOCCN1CCCCCC1 next?
Out: 78,8%

* * *

// Synergistischer Faktor bei Ripcord lookup, one value per entry
- Tested on: Kornkäfer (sitophilus granarius L)
- test.details: whole plant or invertebrate
- Type: in vivo
- reported.conditions: Pyrethroid : Amin 1 : 10

In: Entry under review: Clc1ccc(CN2CCCC2)cc1 [N-4-Chlor-benzyl-pyrrolidin] . Reported Synergistischer Faktor bei Ripcord?
Out: 3,09

In: Can you check CCCCCCCCCCCN1CCCC1 [N-1-Undecyl-pyrrolidin] next?
Out: 3,09

In: Can you check CCOC(=O)C(c1ccccc1)N1CCCCC1 (stereo not shown) next?
Out: 3,14

In: Can you check CCCCCCCCCCN1CCCCC1 [N-1-Decyl-piperidin] next?
Out: 3,09
